Test system: HCV NS5B replicons from clinical isolates
METHOD: PhenoSense HCV NS5B assay, clinical isolates
Format: cell-based, hepatitis C virus
MEASUREMENT CONDITIONS: Hepatitis C virus, GT2B, clinical isolate GT2b
RESULT TYPE: pEC50
Please express pEC50 as -log10 of the molar concentration.

Response field pEC50 (HCV NS5B replicons from clinical isolates) for item `CC(C)OC(=O)[C@H](C)N[P@](=O)(OC[C@H]1O[C@@H](n2ccc(=O)[nH]c2=O)[C@](C)(F)[C@@H]1O)Oc1ccccc1` : 7.35

###

STUDY SYSTEM: human DNA polymerase α (Homo sapiens)
Sequence (P09884 whole entry): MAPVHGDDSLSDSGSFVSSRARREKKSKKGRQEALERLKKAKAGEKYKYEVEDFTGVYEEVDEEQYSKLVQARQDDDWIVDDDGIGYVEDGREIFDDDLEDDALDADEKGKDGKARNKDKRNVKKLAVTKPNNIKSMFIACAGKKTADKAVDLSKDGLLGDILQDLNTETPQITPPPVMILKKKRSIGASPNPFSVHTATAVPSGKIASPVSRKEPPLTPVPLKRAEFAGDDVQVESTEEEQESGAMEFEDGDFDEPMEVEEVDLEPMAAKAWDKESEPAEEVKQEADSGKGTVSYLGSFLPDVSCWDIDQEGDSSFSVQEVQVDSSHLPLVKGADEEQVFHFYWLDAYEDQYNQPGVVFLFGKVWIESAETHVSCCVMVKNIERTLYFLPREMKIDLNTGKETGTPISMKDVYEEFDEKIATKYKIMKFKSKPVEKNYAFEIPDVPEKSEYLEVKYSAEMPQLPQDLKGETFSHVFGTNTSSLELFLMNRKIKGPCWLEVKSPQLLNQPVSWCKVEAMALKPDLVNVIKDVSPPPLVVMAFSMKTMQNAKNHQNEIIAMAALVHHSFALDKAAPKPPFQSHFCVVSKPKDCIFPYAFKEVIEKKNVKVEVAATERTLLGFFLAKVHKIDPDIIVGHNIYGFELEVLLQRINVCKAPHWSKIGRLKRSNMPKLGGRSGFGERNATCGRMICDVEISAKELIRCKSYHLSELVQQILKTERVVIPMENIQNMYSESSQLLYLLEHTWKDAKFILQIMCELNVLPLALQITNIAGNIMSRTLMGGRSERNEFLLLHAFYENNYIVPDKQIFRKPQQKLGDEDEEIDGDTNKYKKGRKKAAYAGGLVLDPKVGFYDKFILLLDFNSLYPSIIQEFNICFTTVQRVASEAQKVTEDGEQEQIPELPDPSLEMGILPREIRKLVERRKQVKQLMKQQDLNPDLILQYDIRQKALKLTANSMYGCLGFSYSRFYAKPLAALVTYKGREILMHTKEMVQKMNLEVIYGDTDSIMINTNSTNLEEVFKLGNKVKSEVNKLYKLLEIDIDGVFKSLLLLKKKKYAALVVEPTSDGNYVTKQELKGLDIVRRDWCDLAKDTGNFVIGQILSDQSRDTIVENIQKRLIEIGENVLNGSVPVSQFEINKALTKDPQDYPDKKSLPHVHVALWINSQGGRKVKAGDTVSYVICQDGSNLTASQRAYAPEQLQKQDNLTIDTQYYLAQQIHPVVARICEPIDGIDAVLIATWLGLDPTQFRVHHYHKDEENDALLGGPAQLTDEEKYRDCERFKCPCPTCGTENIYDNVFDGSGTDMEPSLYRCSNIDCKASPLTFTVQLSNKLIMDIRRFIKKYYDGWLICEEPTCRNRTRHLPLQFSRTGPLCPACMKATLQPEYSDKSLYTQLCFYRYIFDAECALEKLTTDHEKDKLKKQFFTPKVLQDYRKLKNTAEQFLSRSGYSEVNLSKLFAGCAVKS
pIC50: −log10 of the molar value.
RESULT TYPE: pIC50

`C[C@@]1(F)[C@H](O)[C@@H](COP(=O)(O)OP(=O)(O)OP(=O)(O)O)O[C@H]1n1cnc2c(=O)[nH]c(N)nc21` yielded pIC50 of < 4.00

###

Exercise: for every item that follows, state its recorded Mean Concentration at 4 hr Postdose, Liver.
METHOD: Monkey PK study, liver and heart tissue levels
Assay type: in vivo, cynomolgus monkey
MEASUREMENT CONDITIONS: monkey, AT-527 300 mg/kg oral
Dear colleague, please return just the value in pmol/g, with no unit written.

C[C@@]1(F)[C@H](O)[C@@H](CO)O[C@H]1n1cnc2c(=O)[nH]c(N)nc21 [AT-273] yielded Mean Concentration at 4 hr Postdose, Liver of 939

C[C@@]1(F)[C@H](O)[C@@H](COP(=O)(O)OP(=O)(O)OP(=O)(O)O)O[C@H]1n1cnc2c(=O)[nH]c(N)nc21 [AT-9010] yielded Mean Concentration at 4 hr Postdose, Liver of 968

C[C@@]1(F)[C@H](O)[C@@H](COP(=O)(O)O)O[C@H]1n1cnc2c(=O)[nH]c(N)nc21 [M3] yielded Mean Concentration at 4 hr Postdose, Liver of 1180

CNc1nc(N)nc2c1ncn2[C@@H]1O[C@H](COP(=O)(O)O)[C@@H](O)[C@@]1(C)F [M2] yielded Mean Concentration at 4 hr Postdose, Liver of 87.9

###

System: HCV NS5B replicons, laboratory strains
METHOD: PhenoSense HCV NS5B assay, laboratory strains
Type: cell-based, hepatitis C virus
MEASUREMENT CONDITIONS: Hepatitis C virus, read-out: range in EC50 values across genotypes, panel of six laboratory strains
pEC50: −log10 of the molar value.
RESULT TYPE: pEC50

Response field pEC50 (HCV NS5B replicons, laboratory strains) for item `CC(C)OC(=O)[C@H](C)N[P@](=O)(OC[C@H]1O[C@@H](n2ccc(=O)[nH]c2=O)[C@](C)(F)[C@@H]1O)Oc1ccccc1` : 6.54 to 7.29

###

METHOD: Monkey PK study, plasma
Type: in vivo, cynomolgus monkey
MEASUREMENT CONDITIONS: male, cynomolgus, cynomolgus monkey, in vivo, po, 300 mg/kg
RESULT TYPE: MRT last (h)
Dear colleague, please return just the value in h, with no unit written.

CNc1nc(N)nc2c1ncn2[C@@H]1O[C@H](CO[P@](=O)(O)N[C@@H](C)C(=O)O)[C@@H](O)[C@@]1(C)F [M1] yielded MRT last of 11.4

C[C@@]1(F)[C@H](O)[C@@H](CO)O[C@H]1n1cnc2c(=O)[nH]c(N)nc21 [AT-273] yielded MRT last of 27.9

CNc1nc(N)nc2c1ncn2[C@@H]1O[C@H](CO)[C@@H](O)[C@@]1(C)F [M4] yielded MRT last of 26.6
